Experiment: Half life in tissue culture medium
Format: ADME
READOUT KIND: half-life

Exam item: Please supply the value of reported half-life for the item CSCC[C@H](NC(=O)[C@H](CCCN=C(N)N)NC(=O)[C@H](CCCN=C(N)N)NC(=O)CC(N)CSC1CC(=O)N(CCC(=O)O[C@@H](C(=O)O[C@@H]2C(C)=CC3[C@@H](OC(C)=O)C(=O)[C@@]4(C)[C@H]([C@H](OC(=O)c5ccccc5)[C@@]2(O)C3(C)C)[C@]2(OC(C)=O)CO[C@@H]2C[C@@H]4O)[C@@H](NC(=O)c2ccccc2)c2ccccc2)C1=O)C(=O)N[C@@H](CCCCN)C(=O)N[C@@H](Cc1c[nH]c2ccccc12)C(=O)N[C@@H](CCCCN)C(=O)N[C@@H](CCCCN)C(N)=O (stereo partly specified)
Marked response: > 8 h
